# assay_system: LXRβ (Homo sapiens)
# Construct: Co-transfection expression plasmids, comprising full-length LXRα (pCMX-h LXRα or LXRβ (pCMX-hLXRβ)); expressed in transfected cells; host or cells: CV-1 African green monkey kidney cells, transient transfection with pCMX-hLXRβ
# protocol_notes: LXR/LXRE co-transfection assay (luciferase reporter) in CV-1 cells, LXRβ
# Assay type: cell-based
# experimental_parameters: CV-1 cells, relative to maximum response of high control N-(3-((4-fluorophenyl)-(naphthalene-2-sulfonyl)amino)propyl)-2,2-dimethylpropionamide, read-out: LXRbeta % EFFICACY
Assign Emax to each entry below.
Give bare numbers, in %.

Count: 6. Required value per item: Emax.
1. Cc1nc(-c2ccc(OC(F)(F)F)cc2)c(-c2cc(-c3cccc(S(C)(=O)=O)c3)ccc2-n2cc(C)c(C(F)(F)F)n2)o1
2. Cc1nc(-c2ccc(OC(F)(F)F)cc2)c(-c2cc(-c3cccc(S(C)(=O)=O)c3)ccc2-n2nc(C(F)(F)F)cc2Cl)o1
3. Cc1nc(-c2ccc3c(c2)OC(F)(F)O3)c(-c2cc(-c3cc(F)c(CO)c(S(C)(=O)=O)c3)ccc2-n2ccc(C(C)(C)O)n2)o1
4. Cc1nc(-c2ccc(OC(F)(F)F)cc2)c(-c2cc(-c3cccc(C(C)(C)C#N)c3)ccc2-n2ccc(C(F)(F)F)n2)o1
5. Cn1nc(C(F)(F)CO)cc1-c1ccc(-c2cc(F)c(CO)c(S(C)(=O)=O)c2)cc1-n1nncc1-c1ccc(OC(F)(F)F)cc1
6. Cc1nc(-c2ccc(OC(F)(F)F)cc2)c(-c2cc(-c3cccc(S(C)(=O)=O)c3)ccc2-n2cc(C#N)c(C3CC3)n2)o1

62
75
30
46
81
28

====

# assay_system: LXRβ (Homo sapiens, UniProt P55055)
# Construct: Co-transfection expression plasmids, comprising full-length LXRα (pCMX-h LXRα or LXRβ (pCMX-hLXRβ)); expressed in transfected cells; host or cells: CV-1 African green monkey kidney cells, transient transfection with pCMX-hLXRβ
# Sequence (P55055 1-460): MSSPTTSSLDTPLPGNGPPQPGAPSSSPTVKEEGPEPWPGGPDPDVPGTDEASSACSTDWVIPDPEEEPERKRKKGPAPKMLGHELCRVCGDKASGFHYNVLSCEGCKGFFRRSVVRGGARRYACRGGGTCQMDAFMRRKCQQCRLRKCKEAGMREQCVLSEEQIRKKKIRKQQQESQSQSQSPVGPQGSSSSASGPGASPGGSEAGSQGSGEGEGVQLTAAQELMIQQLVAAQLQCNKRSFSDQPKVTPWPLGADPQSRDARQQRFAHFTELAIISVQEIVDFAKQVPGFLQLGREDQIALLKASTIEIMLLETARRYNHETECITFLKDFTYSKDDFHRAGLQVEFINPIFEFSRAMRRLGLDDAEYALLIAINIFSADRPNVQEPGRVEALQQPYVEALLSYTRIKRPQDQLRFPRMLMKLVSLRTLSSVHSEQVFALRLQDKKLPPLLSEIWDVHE
# Sequence (P19793 1-462 partner): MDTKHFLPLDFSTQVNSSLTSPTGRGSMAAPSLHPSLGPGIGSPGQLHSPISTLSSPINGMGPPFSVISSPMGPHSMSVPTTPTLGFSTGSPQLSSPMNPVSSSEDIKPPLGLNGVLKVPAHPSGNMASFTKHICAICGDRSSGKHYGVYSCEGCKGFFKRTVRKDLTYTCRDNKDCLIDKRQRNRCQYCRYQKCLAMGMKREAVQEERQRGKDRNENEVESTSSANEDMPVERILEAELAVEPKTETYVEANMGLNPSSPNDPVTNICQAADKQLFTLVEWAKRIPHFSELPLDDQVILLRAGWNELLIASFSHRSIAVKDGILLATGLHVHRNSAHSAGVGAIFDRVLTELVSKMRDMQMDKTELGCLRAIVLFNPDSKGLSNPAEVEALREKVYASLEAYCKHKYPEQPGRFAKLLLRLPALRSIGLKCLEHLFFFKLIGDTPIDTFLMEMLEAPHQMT
# protocol_notes: LXR/LXRE co-transfection assay (luciferase reporter) in CV-1 cells, LXRβ
# Assay type: cell-based
# experimental_parameters: CV-1 cells, relative to maximum response of high control N-(3-((4-fluorophenyl)-(naphthalene-2-sulfonyl)amino)propyl)-2,2-dimethylpropionamide, read-out: LXRbeta % EFFICACY
Assign Emax to each entry below.
Answers are plain numbers, in %.

{"smiles_record": "Cn1nc(C(F)F)cc1-c1ccc(-c2cccc(S(C)(=O)=O)c2)cc1-n1nncc1-c1ccc(OC(F)(F)F)cc1", "metric": "Emax", "reported_result": 80}
{"smiles_record": "Cc1nc(-c2ccc(OC(F)F)cc2)c(-c2cc(-c3ccc(CO)c(S(C)(=O)=O)c3)ccc2-n2nc(C(F)(F)F)cc2C)o1", "metric": "Emax", "reported_result": 77}
{"smiles_record": "CNC(=O)C(F)(F)c1cc(-c2ccc(-c3cc(F)c(CO)c(S(C)(=O)=O)c3)cc2-c2oc(C)nc2-c2ccc(OC(F)F)c(F)c2)n(C)n1", "metric": "Emax", "reported_result": 79}
{"smiles_record": "Cc1nc(-c2cc(-c3cc(F)c(CO)c(S(C)(=O)=O)c3)ccc2-n2nc(C(F)(F)F)cc2C)c(-c2ccc(OC(F)F)cc2)o1", "metric": "Emax", "reported_result": 73}

Please look at the following compound next.
Measured Emax, Cc1nc(-c2ccc3c(c2)OC(F)(F)O3)c(-c2cc(-c3cccc(S(C)(=O)=O)c3)ccc2-n2ccc(C(F)(F)F)n2)o1 : 91

====

# assay_system: LXRβ (Homo sapiens, UniProt P55055)
# Construct: Co-transfection expression plasmids, comprising full-length LXRα (pCMX-h LXRα or LXRβ (pCMX-hLXRβ)); expressed in transfected cells; host or cells: CV-1 African green monkey kidney cells, transient transfection with pCMX-hLXRβ
# protocol_notes: LXR/LXRE co-transfection assay (luciferase reporter) in CV-1 cells, LXRβ
# Format: cell-based
# experimental_parameters: CV-1 cells, relative to maximum response of high control N-(3-((4-fluorophenyl)-(naphthalene-2-sulfonyl)amino)propyl)-2,2-dimethylpropionamide, read-out: LXRbeta % EFFICACY
Mark each entry class 1 if its Emax sits below 60%, and class 0 for all others.

I'd appreciate it if you could check whether Cc1nc(-c2ccc3c(c2)OC(F)(F)O3)c(-c2cc(-c3cccc(S(C)(=O)=O)c3)ccc2-c2cc(C#N)nn2C)o1 [Example 123] has Emax smaller than 60%. class 1

I'd appreciate it if you could check whether Cn1nc(C(F)(F)CO)cc1-c1ccc(-c2cccc(S(C)(=O)=O)c2)cc1-n1nncc1-c1ccc(OC(F)(F)F)cc1 [Example 25] has Emax smaller than 60%. class 0

I'd appreciate it if you could check whether Cc1nc(-c2cc(-c3ccc(CO)c(S(C)(=O)=O)c3)ccc2-n2nc(C(F)(F)F)cc2C)c(-c2ccc(OC(F)F)cc2)o1 [Example 392] has Emax smaller than 60%. class 0

I'd appreciate it if you could check whether Cn1nc(C(F)(F)F)cc1-c1ccc(-c2cc(F)c(CO)c(S(C)(=O)=O)c2)cc1-n1nncc1-c1ccc(OC(F)(F)F)cc1 [Example 15] has Emax smaller than 60%. class 0

I'd appreciate it if you could check whether Cc1nc(-c2cc(-c3ccc(CO)c(S(C)(=O)=O)c3)ccc2-n2nc(C(F)(F)F)cc2C)c(-c2ccc3c(c2)OC(F)(F)O3)o1 [Example 390] has Emax smaller than 60%. class 0

I'd appreciate it if you could check whether CS(=O)(=O)c1cc(-c2ccc(-n3ccc(C(F)(F)F)n3)c(-c3oc(C4CC4)nc3-c3ccc(OC(F)(F)F)cc3)c2)cc(F)c1CO [Example 339] has Emax smaller than 60%. class 0

I'd appreciate it if you could check whether CS(=O)(=O)c1cccc(-c2ccc(-n3ccc(C(F)(F)F)n3)c(-c3oc(C4CC4)nc3-c3ccc(OC(F)(F)F)cc3)c2)c1 [Example 338] has Emax smaller than 60%. class 1

I'd appreciate it if you could check whether Cn1nc(C(F)(F)F)cc1-c1ccc(-c2cccc(C(C)(C)C(N)=O)c2)cc1-n1nncc1-c1ccc(OC(F)(F)F)cc1 [Example 12] has Emax smaller than 60%. class 0

I'd appreciate it if you could check whether Cc1nc(-c2ccc3c(c2)OC(F)(F)O3)c(-c2cc(-c3cc(F)c(CO)c(S(C)(=O)=O)c3)ccc2-c2cc(C(C)(C)C#N)nn2C)o1 [Example 97] has Emax smaller than 60%. class 0

====

# assay_system: LXRβ (Homo sapiens)
# Construct: Co-transfection expression plasmids, comprising full-length LXRα (pCMX-h LXRα or LXRβ (pCMX-hLXRβ)); expressed in transfected cells; host or cells: CV-1 African green monkey kidney cells, transient transfection with pCMX-hLXRβ
# protocol_notes: LXR/LXRE co-transfection assay (luciferase reporter) in CV-1 cells, LXRβ
# Type: cell-based
# experimental_parameters: CV-1 cells, relative to maximum response of high control N-(3-((4-fluorophenyl)-(naphthalene-2-sulfonyl)amino)propyl)-2,2-dimethylpropionamide, read-out: LXRbeta % EFFICACY
metric: Emax (%)
Numbers only, in %.

Sample records with Emax:
{"smiles_record": "Cc1nc(-c2ccc3c(c2)OC(F)(F)O3)c(-c2cc(-c3cc(F)c(CO)c(S(C)(=O)=O)c3)ccc2-c2cc(C(=O)NCC3CC3)nn2C)o1", "reported_result": 55}
{"smiles_record": "Cc1nc(-c2ccc3c(c2)OC(F)(F)O3)c(-c2cc(-c3cc(F)c(CO)c(S(C)(=O)=O)c3)ccc2-c2cc(C(F)(F)C(=O)N3CCOCC3)nn2C)o1", "reported_result": 43}
{"smiles_record": "Cc1nc(-c2ccc3c(c2)OC(F)(F)O3)c(-c2cc(-c3cccc(S(C)(=O)=O)c3)ccc2-c2cc(C(F)(F)CO)nn2C)o1", "reported_result": 64}
{"smiles_record": "Cn1nc(C(F)(F)C(C)(C)O)cc1-c1ccc(-c2cccc(S(C)(=O)=O)c2)cc1-n1nncc1-c1ccc(OC(F)(F)F)cc1", "reported_result": 66}

Measured Emax, Cc1nc(-c2ccc3c(c2)OC(F)(F)O3)c(-c2cc(-c3cccc(S(C)(=O)=O)c3)ccc2-c2cc(C(=O)NCC3CC3)nn2C)o1 : 52

The measured values listed here are drawn from patent US9751869B2.
